experiment: Quantitative highthroughput screen to assess conditional lethalithy of P12 Ichikawa cells grown in Human Plasma-Like Medium with dialyzed fetal bovine serum (HPLM+ds) (AID 1963879); details: ATP luminescence, 48 h; viability; series mostly up to 45.8 µM; note: nearly all actives have a fitted effect of over 35% in size
Inconclusive results are not listed. Calls of active or inactive are those of the source. Calls come from the whole dose curve; as a rule, active = well fitted cell-killing curve with a large enough effect; inconclusive = small, poorly fitted or top-dose-only effect; inactive = flat fitted curve, though single readings scatter.
Classes used: label 1 = active, label 0 = inactive

COMPOUND	CATEGORY_LABEL
CO[C@H]1C=CO[C@@]2(C)Oc3c(C)c(O)c4c(O)c(c5c(c4c3C2=O)NC2(CCN(CC(C)C)CC2)N=5)=NC(=O)C(C)=CC=C[C@H](C)[C@H](O)[C@@H](C)[C@@H](O)[C@@H](C)[C@H](OC(C)=O)[C@H]1C	label 0
CC[C@]1(O)C[C@H]2CN(CCc3c([nH]c4ccccc34)[C@@](C(=O)OC)(c3cc4c(cc3OC)N(C=O)[C@H]3[C@@](O)(C(=O)OC)[C@H](OC(C)=O)[C@]5(CC)C=CCN6CC[C@]43[C@@H]65)C2)C1	label 1
CCOc1ccc(Nc2nc(-c3c(C)nc4ccccn34)cs2)cc1	label 1
CCn1cc(C(=O)O)c(=O)c2ccc(C)nc21	label 0
Cc1[nH]c(C=C2C(=O)Nc3ccc(S(=O)(=O)N(C)c4cccc(Cl)c4)cc32)c(C)c1C(=O)N1CCN(C)CC1	label 1
COC[C@H](NC(=O)c1cnc(C)s1)C(=O)N[C@@H](COC)C(=O)N[C@@H](Cc1ccccc1)C(=O)[C@@]1(C)CO1	label 1
COc1ccc(-c2oc3cc(OC)ccc3c2C(=O)c2ccc(C#N)cc2)cc1	label 1
COc1cc(C(C)C)c(Oc2cnc(NC(CO)CO)nc2N)cc1I	label 0
NNC(=O)c1ccncc1	label 1
Oc1cc(-c2nc(-c3ccccc3)[nH]c2-c2ccncc2)ccc1Cl	label 1
CN(C)CCCNC(=O)c1ccc(-c2cc(O)c3ncccc3c2)cc1	label 0
CC1(O)CC(c2nc(-c3ccc4ccc(-c5ccccc5)nc4c3)c3c(N)nccn23)C1 (stereo not drawn)	label 1
O=c1c(-c2ccc(O)cc2)coc2cc(O)cc(O)c12	label 0
